- target.desc: furin, P09958;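 further: purified furin at 1:10 enzyme:substrate in 50 mM HEPES pH 7.5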
- Sequence (P09958 whole entry): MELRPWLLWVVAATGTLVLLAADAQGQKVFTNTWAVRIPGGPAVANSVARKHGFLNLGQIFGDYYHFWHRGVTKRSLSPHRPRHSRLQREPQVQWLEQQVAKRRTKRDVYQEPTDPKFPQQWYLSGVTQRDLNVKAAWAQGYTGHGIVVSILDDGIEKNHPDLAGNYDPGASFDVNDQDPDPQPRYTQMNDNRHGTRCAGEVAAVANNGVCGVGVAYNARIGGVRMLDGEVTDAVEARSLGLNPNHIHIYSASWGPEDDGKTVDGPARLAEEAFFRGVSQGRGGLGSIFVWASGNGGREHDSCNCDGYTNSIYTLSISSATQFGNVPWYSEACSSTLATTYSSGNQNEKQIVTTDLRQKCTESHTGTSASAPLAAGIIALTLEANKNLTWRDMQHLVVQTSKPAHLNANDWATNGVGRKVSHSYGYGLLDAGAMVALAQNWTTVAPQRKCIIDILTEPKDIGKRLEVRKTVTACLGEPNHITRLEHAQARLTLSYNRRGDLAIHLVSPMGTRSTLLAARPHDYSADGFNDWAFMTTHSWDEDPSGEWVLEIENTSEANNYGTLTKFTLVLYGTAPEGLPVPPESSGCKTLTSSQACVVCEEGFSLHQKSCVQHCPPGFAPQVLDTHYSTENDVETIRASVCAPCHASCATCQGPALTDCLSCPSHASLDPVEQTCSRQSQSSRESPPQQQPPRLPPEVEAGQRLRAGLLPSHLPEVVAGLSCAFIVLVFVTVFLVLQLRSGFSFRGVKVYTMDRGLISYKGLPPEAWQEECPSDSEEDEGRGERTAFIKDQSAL
- assay.summary: furin cleavage Z-score vs untreated control; higher = more cleavage, active = 3.5 or more, inactive = 1 or less, 8 variable residues between constant flanks
- cond: 15 min
This is one part of the list. No count for the full screen is at hand.

{"sequence.chain": "CARLRRSGRCAGNASASA [FS-3161]", "furin cleavage Z-score": -0.166}
{"sequence.chain": "CAREQRSNGLAGNASASA [FS-3245]", "furin cleavage Z-score": 0.724}
{"sequence.chain": "CAREQRDICEAGNASASA [FS-2658]", "furin cleavage Z-score": 0.317}
{"sequence.chain": "CAREQRDVERAGNASASA [FS-2485]", "furin cleavage Z-score": 3.86}
{"sequence.chain": "CARLRRSKRCAGNASASA [FS-1607]", "furin cleavage Z-score": 1.58}
{"sequence.chain": "CAAHWGVLAGAGNASASA [HC336]", "furin cleavage Z-score": -1.2}
{"sequence.chain": "CARLRRSNYFAGNASASA [FS-2717]", "furin cleavage Z-score": 3.14}
